Just for reference, patent US20170196834A1 is where these values come from.

ASSAY REMARKS: Levodopa in blood and brain tissues 0.5 h after intragastric administration, UPLC-MS (Example 7)
Assay type: in vivo
SETTINGS: rat, brain, oral, SD rats, intragastric 100 mg/kg levodopa, read-out: levodopa Content in the brain tissues

# INPUT SMILES, concentration at 0.5 h
measured = [
    ("N[C@@H](Cc1ccc(O)c(O)c1)C(=O)O", "284 ng/mL"),
]

###

ASSAY REMARKS: Vinpocetine, edaravone, oxiracetam in blood and brain tissue 0.5 h after intragastric administration, UPLC-MS (Example 6)
Format: in vivo
SETTINGS: rat, brain, oral, SD rats, intragastric 100 mg/kg, read-out: Vinpocetine content in the brain tissue

# INPUT SMILES, concentration at 0.5 h [ng/mL]
rows = [
    ("CCOC(=O)C1=C[C@]2(CC)CCCN3CCc4c(n1c1ccccc41)[C@@H]32", 124),
]

###

ASSAY REMARKS: Resveratrol in blood and brain tissues 0.5 h after intragastric administration, UPLC-MS (Example 4)
Type: in vivo
SETTINGS: rat, brain, oral, SD rats, 100 mg/kg resveratrol, 0.5 h after administration, read-out: Resveratrol content in brain tissues

# INPUT SMILES, concentration at 0.5 h / ng/g
records = [
    ("Oc1ccc(C=Cc2cc(O)cc(O)c2)cc1", 3.12),
]

###

ASSAY REMARKS: Vinpocetine, edaravone, oxiracetam in blood and brain tissue 0.5 h after intragastric administration, UPLC-MS (Example 6)
Type: in vivo
SETTINGS: rat, brain, oral, SD rats, intragastric 100 mg/kg, read-out: Oxiracetam content in the brain tissue

# COMPOUND, UNIT TAG, concentration at 0.5 h
records = [
    ("NC(=O)CN1CC(O)CC1=O (stereo not shown) [Oxiracetam, oxiracetam]", "ng/mL", 173),
]
